Sourced from patent US20260297081A1

# EXPERIMENTAL SYSTEM: CDK4 (Homo sapiens, UniProt P11802+Q16531)
# Sequence (P11802 2-303 limits assumed): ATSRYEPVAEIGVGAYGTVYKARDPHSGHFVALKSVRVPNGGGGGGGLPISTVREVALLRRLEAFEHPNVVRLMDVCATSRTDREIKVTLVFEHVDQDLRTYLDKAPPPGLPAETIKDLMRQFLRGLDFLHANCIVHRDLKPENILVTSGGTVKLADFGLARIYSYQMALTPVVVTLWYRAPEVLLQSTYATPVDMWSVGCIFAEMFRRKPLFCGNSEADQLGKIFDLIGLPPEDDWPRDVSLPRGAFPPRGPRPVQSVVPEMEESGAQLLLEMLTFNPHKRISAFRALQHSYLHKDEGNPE
# Sequence (P24385 whole entry partner): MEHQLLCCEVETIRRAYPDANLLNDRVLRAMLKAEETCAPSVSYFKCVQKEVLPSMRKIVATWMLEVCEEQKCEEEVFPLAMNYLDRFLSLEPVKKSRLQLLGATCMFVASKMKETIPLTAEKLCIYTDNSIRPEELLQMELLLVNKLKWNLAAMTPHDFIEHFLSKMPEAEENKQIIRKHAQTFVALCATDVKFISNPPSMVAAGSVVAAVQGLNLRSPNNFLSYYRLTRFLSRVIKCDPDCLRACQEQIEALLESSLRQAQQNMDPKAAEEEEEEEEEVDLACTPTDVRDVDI
# Sequence (Q16531 2-1140 limits assumed): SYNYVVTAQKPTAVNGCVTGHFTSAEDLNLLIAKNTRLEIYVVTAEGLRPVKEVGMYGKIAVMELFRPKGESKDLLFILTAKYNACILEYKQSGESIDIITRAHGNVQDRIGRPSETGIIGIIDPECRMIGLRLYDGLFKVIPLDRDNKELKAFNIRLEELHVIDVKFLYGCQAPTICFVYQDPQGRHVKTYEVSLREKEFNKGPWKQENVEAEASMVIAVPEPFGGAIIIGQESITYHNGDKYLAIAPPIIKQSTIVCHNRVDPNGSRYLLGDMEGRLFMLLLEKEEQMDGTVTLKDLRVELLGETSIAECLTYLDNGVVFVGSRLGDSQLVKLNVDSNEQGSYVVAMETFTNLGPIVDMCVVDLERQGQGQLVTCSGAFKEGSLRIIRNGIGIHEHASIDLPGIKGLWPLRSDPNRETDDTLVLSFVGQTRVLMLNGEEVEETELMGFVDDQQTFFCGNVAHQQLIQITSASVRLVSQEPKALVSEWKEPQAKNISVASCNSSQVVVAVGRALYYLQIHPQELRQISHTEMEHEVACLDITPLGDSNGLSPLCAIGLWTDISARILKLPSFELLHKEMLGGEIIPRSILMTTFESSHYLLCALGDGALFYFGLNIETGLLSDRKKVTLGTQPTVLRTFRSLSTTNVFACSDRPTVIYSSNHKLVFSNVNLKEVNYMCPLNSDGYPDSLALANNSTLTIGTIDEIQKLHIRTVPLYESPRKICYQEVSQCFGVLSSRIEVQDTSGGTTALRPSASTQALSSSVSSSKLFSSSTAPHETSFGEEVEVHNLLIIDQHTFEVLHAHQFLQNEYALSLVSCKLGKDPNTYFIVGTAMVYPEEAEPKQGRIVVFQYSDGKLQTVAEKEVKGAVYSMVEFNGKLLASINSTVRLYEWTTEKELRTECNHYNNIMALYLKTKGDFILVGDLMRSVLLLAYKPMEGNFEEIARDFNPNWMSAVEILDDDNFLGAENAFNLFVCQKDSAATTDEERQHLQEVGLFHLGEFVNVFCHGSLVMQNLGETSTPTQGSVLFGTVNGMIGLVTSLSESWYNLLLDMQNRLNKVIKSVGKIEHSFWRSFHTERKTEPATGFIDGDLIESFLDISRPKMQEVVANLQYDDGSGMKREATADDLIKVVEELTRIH
# ASSAY SUMMARY: CDK4 percentage degradation in Calu-1 cells (Table 6)
# Type: cell-based
# Set-up: Cells that express cyclin D1-3 and CDK4/6 proteins were treated with heterobifunctional compounds; endogenous in cells; host or cells: Calu-1
# PARTICULARS: 200 nM, 16 hours
OBSERVATION TYPE: inhibition at 0.2 µM

Dear colleague, I am looking for the recorded inhibition at 0.2 µM of the following compound: [2H]C([2H])([2H])Nc1ccc(C(=O)Nc2ccc(N(C)C)nn2)c(NC2CC(NC(=O)CN3CCN(c4ccc(Nc5ncc6c(C)c(C(C)=O)c(=O)n(C7CCCC7)c6n5)nc4)CC3)C2)n1 (stereo not drawn) [CPD-245] 50 to 80%

GET /values?readout=inhibition at 0.2 µM&item= CC(=O)c1c(C)c2cnc(Nc3ccc(N4CCN(CC(=O)NC5CC6(C5)CC(Nc5nc(NC(C)C)ccc5C(=O)Nc5cccc(C)n5)C6)CC4)cn3)nc2n(C2CCCC2)c1=O (stereo not drawn) [CPD-190] 50 to 80%

Need inhibition at 0.2 µM, item CNc1ccc(C(=O)Nc2ccc(N(C)C)nn2)c(NCC2CCN(C(=O)CN3CCN(c4ccc(Nc5ncc6c(C)c(C(C)=O)c(=O)n(C7CCCC7)c6n5)nc4)CC3)CC2)n1 [CPD-145] 50 to 80%

I am curious: what inhibition at 0.2 µM value has been reported for CNc1ccc(C(=O)Nc2ccc3c(ccn3C)n2)c(NCCCCCNC(=O)CN2CCN(c3ccc(Nc4ncc5c(C)c(C(C)=O)c(=O)n(C6CCCC6)c5n4)nc3)CC2)n1 [CPD-33] ? > 80%

Form field: reported inhibition at 0.2 µM of CC(=O)c1c(C)c2cnc(Nc3ccc(N4CCN(CC(=O)NC5CC6(C5)CC(Nc5nc(C(F)(F)F)ccc5C(=O)Nc5cccc(C7CC7)n5)C6)CC4)cn3)nc2n(C2CCCC2)c1=O (stereo not drawn) [CPD-121] 30 to 50%

Query (compound): CNc1ccc(C(=O)Nc2cc(C)n(C)n2)c(NCCCCCNC(=O)CN2CCN(c3ccc(Nc4ncc5c(C)c(C(C)=O)c(=O)n(C6CCCC6)c5n4)nc3)CC2)n1 [CPD-50] ; field requested: inhibition at 0.2 µM 50 to 80%

Reported inhibition at 0.2 µM, compound CNc1ccc(C(=O)Nc2cccc(C3CC3)n2)c(NC2CC3(CC(NC(=O)CN4CCN(c5ccc(Nc6ncc7c(C)c(C(C)=O)c(=O)n(C8CCCC8)c7n6)nc5)CC4)C3)C2)n1 (stereo not drawn) [CPD-72] : ____ > 80%

Request the reported inhibition at 0.2 µM associated with CNc1ccc(C(=O)Nc2ccc(C(F)(F)F)c(C3CC3)n2)c(NC2CC3(CC(NC(=O)CN4CCN(c5ccc(Nc6ncc7c(C)c(C(C)=O)c(=O)n(C8CCCC8)c7n6)nc5)CC4)C3)C2)n1 (stereo not drawn) [CPD-87] < 30%

Name the recorded inhibition at 0.2 µM for CNc1ccc(C(=O)Nc2ccc(N(C)C)nn2)c(NCC2CCN(C(=O)CCN3CCN(c4ccc(Nc5ncc6c(C)c(C(C)=O)c(=O)n(C7CCCC7)c6n5)nc4)CC3)CC2)n1 [CPD-146] . > 80%

For the compound CNc1ccc(C(=O)Nc2ccccn2)c(NC2CC3(CC(NC(=O)CN4CCN(c5ccc(Nc6ncc7c(C)c(C(C)=O)c(=O)n(C8CCCC8)c7n6)nc5)CC4)C3)C2)n1 (stereo not drawn) [CPD-137] , what inhibition at 0.2 µM is on record? 30 to 50%

Entry CNc1ccc(C(=O)Nc2ccc(N(C)C)cc2)c(NCCCCCNC(=O)CN2CCN(c3ccc(Nc4ncc5c(C)c(C(C)=O)c(=O)n(C6CCCC6)c5n4)nc3)CC2)n1 [CPD-46] has what inhibition at 0.2 µM? < 30%

Requested read-out: inhibition at 0.2 µM. Entry: CC(=O)c1c(C)c2cnc(Nc3ccc(N4CCN(C(=O)NCCC5CC(Nc6cc(Cl)ccc6C(=O)Nc6ccc(C)c(C7CC7)n6)C5)CC4)cn3)nc2n(C2CCCC2)c1=O (stereo not drawn) [CPD-256] < 30%

Quick one: inhibition at 0.2 µM for CNc1ccc(C(=O)Nc2ccc(N(C)C)nn2)c(NC2CC(C(=O)N3CCC(N4CCN(c5ccc(Nc6ncc7c(C)c(C(C)=O)c(=O)n(C8CCCC8)c7n6)nc5)CC4)C3)C2)n1 (stereo not drawn) [CPD-333] ? < 30%

Look at this compound and give its reported inhibition at 0.2 µM. CC(=O)c1c(C)c2cnc(Nc3ccc(N4CCN(CCC(=O)N5CC6(CC(Nc7nc(NC(C)C)ccc7C(=O)Nc7cc(C)n(C)n7)C6)C5)CC4)cn3)nc2n(C2CCCC2)c1=O [CPD-302] < 30%

What value of inhibition at 0.2 µM has been reported for the following compound? CNc1ccc(C(=O)Nc2ccc(N(C)C)nn2)c(NC2CCC(NC(=O)CN3CCN(c4ccc(Nc5ncc6c(C)c(C(C)=O)c(=O)n(C7CCCC7)c6n5)nc4)CC3)CC2)n1 (stereo not drawn) [CPD-130] 50 to 80%

Using the record for CC(=O)c1c(C)c2cnc(Nc3ccc(N4CCN(CC(=O)NC5CC6(C5)CC(Nc5nc(NC(C)C)ccc5C(=O)Nc5cccc(C7CC7)n5)C6)CC4)cn3)nc2n(C2CCCC2)c1=O (stereo not drawn) [CPD-139] , report its inhibition at 0.2 µM. 50 to 80%

# get_value(readout='inhibition at 0.2 µM', item= CNc1ccc(C(=O)Nc2ccc(N(C)C)nn2)c(NCCCCCNC(=O)C(C)N2CCN(c3ccc(Nc4ncc5c(C)c(C(C)=O)c(=O)n(C6CCCC6)c5n4)nc3)CC2)n1 (stereo not drawn) [CPD-14] ) 50 to 80%

Requested field: inhibition at 0.2 µM. Item: CC(=O)c1c(C)c2cnc(Nc3ccc(N4CCN(CC(=O)NCCCCCNc5nc(C#N)ccc5C(=O)Nc5ccc(N(C)C)nn5)CC4)cn3)nc2n(C2CCCC2)c1=O [CPD-28] 50 to 80%

GET /values?readout=inhibition at 0.2 µM&item= CNc1ccc(C(=O)Nc2cc(C(F)(F)F)n(C)n2)c(NC2CC3(CC(NC(=O)CN4CCN(c5ccc(Nc6ncc7c(C)c(C(C)=O)c(=O)n(C8CCCC8)c7n6)nc5)CC4)C3)C2)n1 (stereo not drawn) [CPD-127] < 30%

Data request, read-out inhibition at 0.2 µM, for CNc1ccc(C(=O)Nc2ccc(N(C)C)nc2)c(NCCCCCNC(=O)CN2CCN(c3ccc(Nc4ncc5c(C)c(C(C)=O)c(=O)n(C6CCCC6)c5n4)nc3)CC2)n1 [CPD-58] 50 to 80%

# get_value(readout='inhibition at 0.2 µM', item= CNc1ccc(C(=O)Nc2ccc(N(C)C)nn2)c(NC2CC(OCC(=O)N3CCN(c4ccc(Nc5ncc6c(C)c(C(C)=O)c(=O)n(C7CCCC7)c6n5)nc4)CC3)C2)n1 (stereo not drawn) [CPD-168] ) > 80%

----------
Give inhibition at 0.04 µM for every item shown.
# EXPERIMENTAL SYSTEM: CDK4 (Homo sapiens, UniProt P11802+Q16531)
# ASSAY SUMMARY: CDK4 percentage degradation in Calu-1 cells (Table 6)
# Type: cell-based
# Set-up: Cells that express cyclin D1-3 and CDK4/6 proteins were treated with heterobifunctional compounds; endogenous in cells; host or cells: Calu-1
# PARTICULARS: 40 nM, 16 hours

Quick one: inhibition at 0.04 µM of CNc1ccc(C(=O)Nc2ccc(OC)nn2)c(NCCCCCNC(=O)CN2CCN(c3ccc(Nc4ncc5c(C)c(C(C)=O)c(=O)n(C6CCCC6)c5n4)nc3)CC2)n1 ? 30 to 50%

Looking for the measured inhibition at 0.04 µM of CNc1ccc(C(=O)Nc2ccc(N(C)C)nn2)c(NC2CC3(CC(NC(=O)CN4CCN(c5ccc(Nc6ncc7c(C)c(C(C)=O)c(=O)n(C8CCCC8)c7n6)nc5)CC4)C3)C2)n1 (centres unmarked) , can you help? 50 to 80%

Give the measured inhibition at 0.04 µM of CNc1ccc(C(=O)Nc2ccc(C(C)C)nn2)c(NCCCCCNC(=O)CN2CCN(c3ccc(Nc4ncc5c(C)c(C(C)=O)c(=O)n(C6CCCC6)c5n4)nc3)CC2)n1 . < 30%

Give the measured inhibition at 0.04 µM of CNc1ccc(C(=O)Nc2ccc(N(C)C)nn2)c(NCC2CCN(C(=O)CCN3CCN(c4ccc(Nc5ncc6c(C)c(C(C)=O)c(=O)n(C7CCCC7)c6n5)nc4)CC3)CC2)n1 . 50 to 80%

Which inhibition at 0.04 µM is reported for this compound? CNc1ccc(C(=O)Nc2ccc(N(C)C)nc2)c(NCCCCCNC(=O)CN2CCN(c3ccc(Nc4ncc5c(C)c(C(C)=O)c(=O)n(C6CCCC6)c5n4)nc3)CC2)n1 30 to 50%

Which measured inhibition at 0.04 µM value corresponds to [2H]C([2H])([2H])Nc1ccc(C(=O)Nc2cccc(C)n2)c(NC2CC3(C2)CC(OC(C)(C)C(=O)N2CCN(c4ccc(Nc5ncc6c(C)c(C(C)=O)c(=O)n(C7CCCC7)c6n5)nc4)CC2)C3)n1 (centres unmarked) ? < 30%

# input compound: CC(=O)c1c(C)c2cnc(Nc3ccc(N4CCN(CCC(=O)N5CC6(CC(Nc7nc(NC(C)C)ccc7C(=O)Nc7cc(C)n(C)n7)C6)C5)CC4)cn3)nc2n(C2CCCC2)c1=O ; wanted: its inhibition at 0.04 µM < 30%

Param item = CNc1ccc(C(=O)Nc2cc(C(C)C)on2)c(NC2CC3(CC(NC(=O)CN4CCN(c5ccc(Nc6ncc7c(C)c(C(C)=O)c(=O)n(C8CCCC8)c7n6)nc5)CC4)C3)C2)n1 (centres unmarked) ; retrieve measured inhibition at 0.04 µM. < 30%

Which value of inhibition at 0.04 µM has been reported for CNc1ccc(C(=O)Nc2ccc(Cl)cn2)c(NCCCCCNC(=O)CN2CCN(c3ccc(Nc4ncc5c(C)c(C(C)=O)c(=O)n(C6CCCC6)c5n4)nc3)CC2)n1 in the records? < 30%

Requested field: inhibition at 0.04 µM. Item: CC(=O)c1c(C)c2cnc(Nc3ccc(N4CCN(CC(=O)NCC5CC(Nc6nc(C7CC7)ccc6C(=O)Nc6cc(C)n(C)n6)C5)CC4)cn3)nc2n(C2CCCC2)c1=O (centres unmarked) 30 to 50%

Requested read-out: inhibition at 0.04 µM. Entry: CC(=O)c1c(C)c2cnc(Nc3ccc(N4CCN(CC(=O)NCC5CC(Nc6nc(NC(C)C)ccc6C(=O)Nc6ccc(N(C)C)nn6)C5)CC4)cn3)nc2n(C2CCCC2)c1=O (centres unmarked) 30 to 50%

# inhibition at 0.04 µM lookup, item CNc1ccc(C(=O)Nc2ccc(C(F)(F)F)nn2)c(NCCCCCNC(=O)CN2CCN(c3ccc(Nc4ncc5c(C)c(C(C)=O)c(=O)n(C6CCCC6)c5n4)nc3)CC2)n1 < 30%

Fill in the blank: the reported inhibition at 0.04 µM of [2H]C([2H])([2H])Nc1ccc(C(=O)Nc2ccc(N(C)C)nn2)c(NC2CC3(C2)CN(C(=O)CC(N2CCN(c4ccc(Nc5ncc6c(C)c(C(C)=O)c(=O)n(C7CCCC7)c6n5)nc4)CC2)C(F)(F)F)C3)n1 (centres unmarked) is ____. < 30%

Consider the compound shown here: CNc1ccc(C(=O)Nc2cc(C)on2)c(NC2CC3(CC(NC(=O)CN4CCN(c5ccc(Nc6ncc7c(C)c(C(C)=O)c(=O)n(C8CCCC8)c7n6)nc5)CC4)C3)C2)n1 (centres unmarked) What is its recorded inhibition at 0.04 µM? 50 to 80%

What does the data say about its inhibition at 0.04 µM? Entry: CNc1ccc(C(=O)Nc2ccc(N(C)C)nn2)c(NC2CCN(C(=O)CN3CCN(c4ccc(Nc5ncc6c(C)c(C(C)=O)c(=O)n(C7CCCC7)c6n5)nc4)CC3)C2)n1 (centres unmarked) 30 to 50%

Give the measured inhibition at 0.04 µM of [2H]C([2H])([2H])Nc1ccc(C(=O)Nc2cn(C)c(C3CC3)n2)c(NC2CCN(C(=O)CN3CCN(c4ccc(Nc5ncc6c(C)c(C(C)=O)c(=O)n(C7CCCC7)c6n5)nc4)CC3)CC2)n1 . 30 to 50%

Which inhibition at 0.04 µM is listed for CNc1ccc(C(=O)Nc2ccc(N(C)C)nn2)c(NC2CC3(C2)CN(C(=O)C(F)(F)CN2CCN(c4ccc(Nc5ncc6c(C)c(C(C)=O)c(=O)n(C7CCCC7)c6n5)nc4)CC2)C3)n1 ? 50 to 80%

Need inhibition at 0.04 µM, item CNc1ccc(C(=O)Nc2cc[nH]n2)c(NC2CC3(CC(NC(=O)CN4CCN(c5ccc(Nc6ncc7c(C)c(C(C)=O)c(=O)n(C8CCCC8)c7n6)nc5)CC4)C3)C2)n1 (centres unmarked) < 30%

So what's the measured inhibition at 0.04 µM for this one? [2H]C([2H])([2H])Nc1ccc(C(=O)Nc2ccc(N(C)C)nn2)c(NC2CC(NC(=O)CN3CCN(c4ccc(Nc5ncc6c(C)c(C(C)=O)c(=O)n(C7CCCC7)c6n5)nc4)CC3)C2)n1 (centres unmarked) 30 to 50%

Entry CNc1ccc(C(=O)Nc2ccc(N)nn2)c(NCCCCCNC(=O)CN2CCN(c3ccc(Nc4ncc5c(C)c(C(C)=O)c(=O)n(C6CCCC6)c5n4)nc3)CC2)n1 has what inhibition at 0.04 µM? < 30%
